target: Nicotinamide phosphoribosyltransferase (Mus musculus); test: Inhibition of recombinant mouse wild-type NAMPT expressed in bacterial expression system using PRPP as substrate in presence of mouse NMNAT-3 measured for 1 hr by fluorescence assay
Sequence (Q99KQ4 whole entry): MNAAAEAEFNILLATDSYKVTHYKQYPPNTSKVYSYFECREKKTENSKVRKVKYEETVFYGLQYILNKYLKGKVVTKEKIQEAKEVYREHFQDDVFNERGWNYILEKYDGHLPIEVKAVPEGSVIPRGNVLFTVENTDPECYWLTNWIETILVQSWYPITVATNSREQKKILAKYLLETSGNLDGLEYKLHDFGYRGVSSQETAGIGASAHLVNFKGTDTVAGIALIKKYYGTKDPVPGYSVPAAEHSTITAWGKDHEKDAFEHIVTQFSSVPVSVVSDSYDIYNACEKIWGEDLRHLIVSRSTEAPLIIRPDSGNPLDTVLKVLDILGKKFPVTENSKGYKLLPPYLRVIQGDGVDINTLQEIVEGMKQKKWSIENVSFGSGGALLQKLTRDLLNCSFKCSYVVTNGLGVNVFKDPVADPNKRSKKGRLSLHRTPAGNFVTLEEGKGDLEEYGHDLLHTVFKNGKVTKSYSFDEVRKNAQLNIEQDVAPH
pIC50: −log10 of the molar value.
Catalogue of pIC50 values
reported-metric: pIC50

smiles_data=O=C(NCCCCCCCn1cc(-c2ccc[n+]([O-])c2)nn1)c1ccccc1-c1ccccc1 measured_result="< 6.30"
smiles_data=O=C(O)c1cccc(-c2ccccc2C(=O)NCCCCCCCn2cc(-c3cccnc3)nn2)c1 measured_result="< 6.30"
smiles_data=O=C(O)c1ccc(-c2ccccc2C(=O)NCCCCCCCn2cc(-c3cccnc3)nn2)cc1 measured_result="< 6.30"
